Origin of the recorded values: BindingDB's records for PubMed 32916382

- assay details: Inhibition of IL-6 (unknown origin) by ELISA assay
result type: pIC50
Here pIC50 is given on a logarithmic scale as minus log10 of the concentration in mol/L.

CC(C)=CCN1Cc2cc(Cl)c(Cl)c3nc(S)n(c23)C[C@@H]1C : 5.89
CC(C)=CCN1Cc2cc(C)cc3[nH]c(=S)n(c23)CC1C (configuration not stated) : 5.70
CCOC(=O)C1=C(C)N=c2s/c(=C\c3ccc(N4CCOCC4)cc3)c(=O)n2C1c1ccccc1 (configuration not stated) : 6.07

## Input Which pIC50 is reported for this compound? CCOP(=O)(OCC)SCCSCC
## Output 6.22

## Input Need pIC50, item CCSCCSP(=O)(OC)OC
## Output 4.86

## Input Sample CCCC[C@@H]1OC(=O)C2=CCCC[C@H]21 — what was its pIC50?
## Output 5.79

## Input Can you look up the measured pIC50 of COP(=O)(OC)Oc1ccc([N+](=O)[O-])cc1 for me?
## Output 6.25
